Values compiled from paper PMC5681660.

# maps each entry to its B-score functional assay
target: human NTCP (Homo sapiens, UniProt Q14973); assay: Screening taurocholate uptake assay (96-well, [14C]taurocholate, 10 µM drug); conditions: screening taurocholate uptake, 10 µM drug
Kindly provide the number alone.

# Compound, B-score functional assay
data = [
    ("C#Cc1cccc(Nc2ncnc3cc(OCCOC)c(OCCOC)cc23)c1", -3.126),
    ("CN1CCN(CCCN2c3ccccc3Sc3ccc(Cl)cc32)CC1 [Prochlorperazine dimaleate]", -4.76),
]

## Task Please tell me: B-score functional assay of Cc1cc(C(=O)NNCc2ccccc2)no1 , system human NTCP (Homo sapiens, UniProt Q14973)?
## Result 0.681

## Task And then Cc1cccn2c(=O)c(-c3nnn[nH]3)cnc12 , what is it?
## Result 0.868

----------
molecular target: human NTCP (Homo sapiens); experiment: Screening taurocholate uptake assay (96-well, [14C]taurocholate, 10 µM drug); settings: screening taurocholate uptake, 10 µM drug
Where a name gives a salt, the structure may show the parent alone.
Measurement name: B-score functional assay
No unit in the answer, please; the number alone is enough.

See these solved cases before continuing.
# Molecule, B-score functional assay
measured = [
    ("C[C@H](CCC(=O)O)[C@H]1CC[C@H]2[C@@H]3[C@H](O)C[C@@H]4C[C@H](O)CC[C@]4(C)[C@H]3CC[C@]12C", -1.277),
    ("COc1c(O[C@@H]2O[C@H](CO)[C@@H](O)[C@H](O)[C@H]2O)cc2c(c1OC)-c1ccc(SC)c(=O)cc1[C@@H](NC(C)=O)CC2 [Thiocolchicoside]", -3.578),
    ("C=C1c2cccc(O)c2C(=O)C2=C(O)[C@]3(O)C(=O)C(C(N)=O)=C(O)[C@@H](N(C)C)[C@@H]3[C@@H](O)[C@H]12 [Methacycline hydrochloride]", 0.118),
    ("COc1ccc(/C=C/C(=O)Nc2ccccc2C(=O)O)cc1OC", -4.178),
]

## Task Which B-score functional assay value is on record for CC(=O)N(O)CCCCCNC(=O)CCC(=O)N(O)CCCCCNC(=O)CCC(=O)N(O)CCCCCN [Deferoxamine mesylate] ?
## Result -0.936

## Task Queued: CN1CCCN=C1/C=C/c1cccc(O)c1.O=C(O)c1cc2ccccc2c(Cc2c(O)c(C(=O)O)cc3ccccc23)c1O [Oxantel pamoate]
## Result -5.305

## Task Same lookup for CCC(=O)OCC(=O)[C@@]1(OC(=O)CC)[C@H](C)C[C@H]2[C@H]3[C@H]([C@@H](O)C[C@@]21C)[C@@]1(C)C=CC(=O)C=C1C[C@H]3Cl [Alclometasone dipropionate] , please.
## Result -2.188

## Task What about this molecule? CC(C)N1CCN(c2ccc(OCC3COC(Cn4cncn4)(c4ccc(Cl)cc4Cl)O3)cc2)CC1 (stereo not shown)
## Result -0.057

## Task What about this molecule? CN(C)C(=O)Oc1cc(OC(=O)N(C)C)cc(C(O)CNC(C)(C)C)c1.Cl (stereo not shown) [Bambuterol hydrochloride]
## Result -0.006

## Task Entry to check: CCCOc1ccccc1-c1nc2nn[nH]c2c(=O)[nH]1
## Result -1.838

## Task Try CC(C)NCC(O)c1cc(O)cc(O)c1.CC(C)NCC(O)c1cc(O)cc(O)c1.O=S(=O)(O)O (stereo not shown) next.
## Result 0.057

## Task Then CCCCCCC[N+](CC)(CC)CCCCc1ccc(Cl)cc1.Cc1ccc(S(=O)(=O)[O-])cc1 [Clofilium tosylate] ?
## Result -2.506

## Task Now consider CN(C)CCCOc1nn(Cc2ccccc2)c2ccccc12 [Benzydamine hydrochloride] .
## Result 0.075

## Task Would you kindly repeat that for Cc1c(Nc2ncccc2C(=O)O)cccc1C(F)(F)F ?
## Result -2.582

## Task Another molecule: CCN(CC)CCc1nc(-c2ccccc2)no1.O=C(O)CC(O)(CC(=O)O)C(=O)O [Oxalamine citrate salt]
## Result 0.505

## Task Moving on to the next molecule: COCCCC/C(=N\OCCN)c1ccc(C(F)(F)F)cc1 [Fluvoxamine maleate]
## Result 0.566

----------
Biological target: human NTCP (Homo sapiens)
Sequence (Q14973 1-349): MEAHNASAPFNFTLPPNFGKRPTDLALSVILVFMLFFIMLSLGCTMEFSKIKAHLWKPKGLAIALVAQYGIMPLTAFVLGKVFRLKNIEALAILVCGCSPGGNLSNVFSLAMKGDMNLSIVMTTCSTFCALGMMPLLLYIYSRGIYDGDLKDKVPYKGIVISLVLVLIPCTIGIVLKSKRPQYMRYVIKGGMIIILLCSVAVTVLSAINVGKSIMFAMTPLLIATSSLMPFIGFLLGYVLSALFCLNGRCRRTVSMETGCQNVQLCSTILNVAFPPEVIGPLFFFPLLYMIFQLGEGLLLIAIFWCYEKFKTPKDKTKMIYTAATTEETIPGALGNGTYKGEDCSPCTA
Experiment: Screening taurocholate uptake assay (96-well, [14C]taurocholate, 10 µM drug)
Settings: screening taurocholate uptake, 10 µM drug
Where a name gives a salt, the structure may show the parent alone.
// NO strictly below -0.8 in B-score functional assay; YES otherwise

# Compound, Class name
rows = [
    ("COc1ccc(-c2ccc3cc(C(=O)O)ccc3c2)cc1C12CC3CC(CC(C3)C1)C2", "YES"),
]

## Task Quick check, B-score functional assay >= -0.8? CCOC(=O)n1ccn(C)c1=S
## Result YES

## Task Another compound to look at: O=[N+]([O-])O[C@@H]1CO[C@H]2[C@@H]1OC[C@@H]2O [Isosorbide mononitrate]
## Result YES

## Task Next entry: CCCN(CCC)C(=O)C(CCC(=O)O)NC(=O)c1ccccc1 (stereo not drawn) [Proglumide]
## Result YES

## Task Now the same for NC(=O)NC1NC(=O)NC1=O (stereo not drawn)
## Result NO

## Task Entry C[C@]12N[C@H](Cc3ccccc31)c1ccccc12 [Dizocilpine maleate] please
## Result YES

## Task // next record O=C(O)c1cc(/N=N/c2ccc(S(=O)(=O)Nc3ccccn3)cc2)ccc1O
## Result NO

## Task Also need O=S(=O)(O)CCS , thanks.
## Result NO

## Task Same thing, different compound: COc1ccc([C@@H]2CC(=O)c3c(O)cc(O[C@@H]4O[C@H](CO[C@@H]5O[C@@H](C)[C@H](O)[C@@H](O)[C@H]5O)[C@@H](O)[C@H](O)[C@H]4O)cc3O2)cc1O
## Result YES

## Task And for N#Cc1cc(NC(=O)C(=O)O)c(Cl)c(NC(=O)C(=O)O)c1 [Lodoxamide] ?
## Result YES

## Task For CC(=O)OC1CN2CCC1CC2 (stereo not drawn) [Aceclidine Hydrochloride] then?
## Result NO

## Task Now try CC(=O)N(CC(O)CN(C(C)=O)c1c(I)c(C(=O)NCC(O)CO)c(I)c(C(=O)NCC(O)CO)c1I)c1c(I)c(C(=O)NCC(O)CO)c(I)c(C(=O)NCC(O)CO)c1I (stereo not drawn) .
## Result YES

## Task Repeat with C[C@]12CC[C@@H]3c4ccc(OS(=O)(=O)O)cc4CC[C@H]3[C@@H]1CCC2=O [Estropipate]
## Result NO

## Task Similarly, CN1CCN(C(c2ccccc2)c2ccccc2)CC1.Cl [Cyclizine hydrochloride] ?
## Result NO

----------
Biological target: human NTCP (Homo sapiens, UniProt Q14973)
Sequence (Q14973 1-349): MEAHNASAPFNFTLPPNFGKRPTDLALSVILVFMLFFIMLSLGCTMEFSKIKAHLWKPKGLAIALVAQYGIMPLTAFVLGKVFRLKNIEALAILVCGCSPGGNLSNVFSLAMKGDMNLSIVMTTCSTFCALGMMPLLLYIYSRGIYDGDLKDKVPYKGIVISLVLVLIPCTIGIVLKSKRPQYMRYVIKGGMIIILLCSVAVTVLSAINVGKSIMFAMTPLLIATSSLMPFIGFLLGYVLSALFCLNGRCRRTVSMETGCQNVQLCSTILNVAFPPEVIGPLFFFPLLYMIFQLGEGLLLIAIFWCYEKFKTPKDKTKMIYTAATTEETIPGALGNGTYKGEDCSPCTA
Assay: Screening fluorescent competitive Myrcludex B-FITC binding assay (96-well, 10 µM drug)
Conditions: Prestwick library screen, 10 µM drug; B-score of Myrcludex B-FITC binding
Structures can show the parent of a compound that is named as a salt.
Assign YES to entries whose B-score binding assay meets or exceeds 0.7; assign NO to the rest.

# Molecule, Class name
data = [
    ("Nc1ccn([C@@H]2O[C@H](CO)[C@@H](O)[C@@H]2O)c(=O)n1", "NO"),
    ("C[C@]12CC[C@@H]3c4ccc(O)cc4CC[C@H]3[C@@H]1CCC2=O", "YES"),
    ("Cc1nc2n(c(=O)c1CCN1CCC(c3noc4cc(F)ccc34)CC1)CCCC2", "YES"),
    ("CC(C(=O)O)c1ccc(C(=O)c2ccccc2)s1 (centres unmarked)", "YES"),
    ("CCC(C)n1ncn(-c2ccc(N3CCN(c4ccc(OCC5COC(Cn6cncn6)(c6ccc(Cl)cc6Cl)O5)cc4)CC3)cc2)c1=O (centres unmarked)", "YES"),
]

## Task Does the molecule CC(COc1ccccc1)NC(C)C(O)c1ccc(O)cc1 (centres unmarked) [Isoxsuprine hydrochloride] have recorded B-score binding assay that is 0.7 or more?
## Result NO

## Task And the next one, Cn1c(=O)c2c(ncn2CC2OCCO2)n(C)c1=O ?
## Result NO

## Task How about this molecule: Cl.O=C(O)/C=C/c1ccc(Cn2ccnc2)cc1 [Ozagrel hydrochloride]
## Result YES
